Assay: cAMP Responsive Elements (CRE) small molecule antagonists, cell-based qHTS assay: qHTS cell viability counter screen (AID 2060913); further: nearly all actives have a fitted effect of over 40% in size
Conditions: CRE-bla HEK293T viability, CellTiter-Glo luminescence, 5 h; series mostly up to 92.4 µM
Results filed as inconclusive are left out. Active and inactive are the calls of the source. The call rests on the fitted dose curve; in most records, active means well fitted cell-killing curve with a large enough effect in the repeat runs; inconclusive means weak or mixed curves, or effect the other way; inactive means flat fitted curve, though single readings scatter.
Classes used: Y = active, N = inactive

[[record]]
compound = "Cc1ccc(OP(=O)(Oc2ccc(C)cc2)Oc2ccc(C)cc2)cc1"
label_class = "N"

[[record]]
compound = "[Cl][Sn]([c]1ccccc1)([c]1ccccc1)[c]1ccccc1"
label_class = "Y"

[[record]]
compound = "CCOP(=O)(OCC)Oc1nc(Cl)c(Cl)cc1Cl"
label_class = "N"

[[record]]
compound = "CC(C)[N+](=O)[O-]"
label_class = "N"

[[record]]
compound = "COC(=O)[C@@H](N)CCCN/C(N)=N/[N+](=O)[O-]"
label_class = "N"

[[record]]
compound = "CN(C)CCc1c[nH]c2ccc(O)cc12"
label_class = "N"

[[record]]
compound = "O=[N+]([O-])c1cccc2ccccc12"
label_class = "N"

[[record]]
compound = "CCNc1nc(NC(C)C)nc(SC)n1"
label_class = "N"

[[record]]
compound = "CN1C(=O)CN=C(c2ccccc2)c2cc(Cl)ccc21"
label_class = "N"

[[record]]
compound = "C1CCC2CCCCC2C1 (stereo unspecified)"
label_class = "N"

[[record]]
compound = "CCCCCCCCCCCCCCCCCC(=O)O"
label_class = "N"

[[record]]
compound = "O=c1oc2ccccc2c(O)c1C(CC(O)c1ccc(-c2ccc(Br)cc2)cc1)c1ccccc1 (stereo unspecified)"
label_class = "N"

[[record]]
compound = "O=C(NC(=O)c1c(F)cccc1F)Nc1cc(Cl)c(OC(F)(F)C(F)C(F)(F)F)cc1Cl (stereo unspecified)"
label_class = "N"

[[record]]
compound = "C[N+](C)(C)CC1CO1 (stereo unspecified)"
label_class = "N"

[[record]]
compound = "CCCCOC(C)=O"
label_class = "N"

[[record]]
compound = "Cc1cccc(C#N)c1"
label_class = "N"

[[record]]
compound = "ClC(Cl)(Cl)c1ccccc1"
label_class = "N"

[[record]]
compound = "C=CC(=C)C"
label_class = "N"

[[record]]
compound = "BrCBr"
label_class = "N"

[[record]]
compound = "CCOc1cc(OP(=S)(OC)OC)nc(CC)n1"
label_class = "N"

[[record]]
compound = "Cc1cccc(Cc2cnc[nH]2)c1C"
label_class = "N"

[[record]]
compound = "O=CC=O"
label_class = "N"

[[record]]
compound = "CC1CCC(=O)O1 (stereo unspecified)"
label_class = "N"

[[record]]
compound = "CC(=O)CN(CC(C)=O)N=O"
label_class = "N"

[[record]]
compound = "CCNc1nc(NC(C)C(C)C)nc(SC)n1 (stereo unspecified)"
label_class = "N"

[[record]]
compound = "O=C(NCNC(=O)NC1C(=O)NC(=O)N1CO)NC1C(=O)NC(=O)N1CO (stereo unspecified)"
label_class = "N"

[[record]]
compound = "N#CS"
label_class = "N"

[[record]]
compound = "CCCOC(=O)Cc1ccc(OCC(=O)N(CC)CC)c(OC)c1"
label_class = "N"

[[record]]
compound = "Cc1cc(C)c(C(=O)P(=O)(C(=O)c2c(C)cc(C)cc2C)c2ccccc2)c(C)c1"
label_class = "N"

[[record]]
compound = "COc1ccc(Cc2nccc3cc(OC)c(OC)cc23)cc1OC"
label_class = "N"

[[record]]
compound = "O=[N+]([O-])CCO"
label_class = "N"

[[record]]
compound = "CCCCCOC(=O)c1ccccc1C(=O)OCCCCC"
label_class = "N"

[[record]]
compound = "COC(=O)Nc1nc2ccccc2[nH]1"
label_class = "N"

[[record]]
compound = "CCN(CC)CCOC(=O)C(O)(c1ccccc1)c1ccccc1"
label_class = "N"

[[record]]
compound = "Clc1cccc(SC2CCNCC2)n1"
label_class = "N"

[[record]]
compound = "COP(=S)(OC)SCn1nnc2ccccc2c1=O"
label_class = "N"

[[record]]
compound = "O=[N+]([O-])/C=C/c1ccccc1"
label_class = "N"

[[record]]
compound = "COc1cc(CCN)cc(OC)c1OC"
label_class = "N"

[[record]]
compound = "CC(C)(C)C(=O)C(Cl)Cl"
label_class = "N"

[[record]]
compound = "CC(C)(c1cc(Cl)c(O)c(Cl)c1)c1cc(Cl)c(O)c(Cl)c1"
label_class = "N"

[[record]]
compound = "C#C[C@]1(O)CC[C@H]2[C@@H]3CCC4=CC(=O)CC[C@]4(C)[C@H]3CC[C@@]21C"
label_class = "N"

[[record]]
compound = "O=C(Cl)OCc1ccccc1"
label_class = "N"

[[record]]
compound = "O=C(O)COc1ccc(Cl)cc1Cl"
label_class = "N"

[[record]]
compound = "COC(=O)Cc1ccccc1"
label_class = "N"

[[record]]
compound = "CCCCNC(=O)OCC#CI"
label_class = "N"

[[record]]
compound = "CCC(Br)(CC)C(=O)NC(N)=O"
label_class = "N"

[[record]]
compound = "C=CCOC(N)=O"
label_class = "N"

[[record]]
compound = "CCCCC(CC)COP(=O)(Oc1ccccc1)Oc1ccccc1 (stereo unspecified)"
label_class = "N"

[[record]]
compound = "O=[N+]([O-])c1ccccc1CCl"
label_class = "N"

[[record]]
compound = "COc1ccc(OC)c(CC(C)N)c1 (stereo unspecified)"
label_class = "N"

[[record]]
compound = "CCS(=O)(=O)C(C)(C)S(=O)(=O)CC"
label_class = "N"

[[record]]
compound = "CC[C@@H](CO)NC(=O)[C@@H]1C=C2c3cccc4c3c(cn4C)C[C@H]2N(C)C1"
label_class = "N"

[[record]]
compound = "CC(=O)[O-].CC(=O)[O-].CC(=O)[O-].[Cr+3]"
label_class = "N"

[[record]]
compound = "CCOC(=O)C(c1c(O)c2ccccc2oc1=O)c1c(O)c2ccccc2oc1=O"
label_class = "N"

[[record]]
compound = "CN1CCC(O)(c2ccc(F)cc2)C(C(=O)c2ccc(F)cc2)C1 (stereo unspecified)"
label_class = "N"

[[record]]
compound = "CCC(C)c1cc([N+](=O)[O-])cc([N+](=O)[O-])c1OC(=O)C=C(C)C (stereo unspecified)"
label_class = "N"

